target: Beta-2 adrenergic receptor (Homo sapiens) (UniProt P07550); assay: agonist-induced loss of surface beta2AR – cell-based, FAP fluorogen, flow cytometry, validation set, pilot screen (AID 504459); conditions: Am2.2-beta2AR cells, at 10 µM, stronger effect = higher value;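 note: agonist-driven loss of surface beta2AR via internalization measured by FAP dye flow cytometry; reference of the scale not given here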
Sequence (P07550 whole entry, looked up): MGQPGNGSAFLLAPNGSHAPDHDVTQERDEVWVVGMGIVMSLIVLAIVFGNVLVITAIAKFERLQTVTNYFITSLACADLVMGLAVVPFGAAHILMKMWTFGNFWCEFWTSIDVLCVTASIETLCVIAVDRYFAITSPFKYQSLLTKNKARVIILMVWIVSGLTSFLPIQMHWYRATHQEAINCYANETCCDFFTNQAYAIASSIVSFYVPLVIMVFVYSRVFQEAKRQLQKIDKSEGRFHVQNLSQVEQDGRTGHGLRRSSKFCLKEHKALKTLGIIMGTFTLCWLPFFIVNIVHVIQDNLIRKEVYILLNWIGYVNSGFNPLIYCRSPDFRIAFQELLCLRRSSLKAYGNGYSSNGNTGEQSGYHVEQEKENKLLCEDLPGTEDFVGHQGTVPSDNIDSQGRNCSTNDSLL
response: recorded values
Could you give me the number in %? Just the number is fine.

Completed entries (count: 3):
CC(=O)C1=C(Nc2ccc(C)cc2)CC(C)(O)C(C(C)=O)C1c1ccco1 (stereo not drawn); 0.66
COC(=O)c1ccc2c(c1)C(=O)/C(=C/c1ccc(O)cc1)O2; -5.34
Cc1nc(N)sc1C(=O)N/N=C/c1ccco1; -0.95

# response of O=C(CS(=O)(=O)Cc1ccccc1)NCc1ccc2c(c1)OCO2 = -3.4

response reading for COc1cc(CNCc2ccc(OC)c(OC)c2OC)cc(OC)c1 : -16

Short answer for O=[N+]([O-])c1cccc2cn[nH]c12 : response was -10.1

So, Cc1ccc(-c2nnc(-c3ccc4c(c3)OCO4)o2)cc1 ? Its response was -16.4

For this compound ( CC(=O)N1CCN(c2ccc(NC(=O)/C=C/c3ccccc3)cc2)CC1 ), measured response is 3.43
